- subject.of.test: T1, hMEX3B KH1/2 WT (Homo sapiens, UniProt Q6ZN04 56-230)
- T1 sequence: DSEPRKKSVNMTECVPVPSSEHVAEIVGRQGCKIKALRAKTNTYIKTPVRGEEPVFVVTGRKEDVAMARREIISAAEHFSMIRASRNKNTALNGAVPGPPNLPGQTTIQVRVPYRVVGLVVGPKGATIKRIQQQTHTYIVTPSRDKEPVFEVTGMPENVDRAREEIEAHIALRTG
- protocol: ITC; N 0.89; ITC at 298 K, protein injected into RNA, both dialyzed in the same buffer (composition not in the material; purification SEC buffer 2 M NaCl, 20 mM Tris pH 7.5); NMR at 298 K, 0.1 mM protein
- assay.conditions: protein: recombinant; tags: 6xHis-SUMO cleaved (ULP1)
outcome.measure: pKd
Give bare numbers, as −log10 of the molar value.

Query: Note down pKd recorded for CUGAGCUGUCAC (ssRNA) [12-nt RNA A10C]
Result: 5.80
